- System: SF-268
- runDescription: NCI tumour cell line growth inhibition, 48 h
Activity calls are given as the source filed them. Rule as the data show it: active = GI50 up to about 1.1 µM and inactive = higher.
readoutName: GI50

Here's what some known entries look like.
molecule	readoutName	assayResult
Cc1cccc(C)c1/N=N/c1ccc(O)c(CN(C)C)c1	GI50	47 µM (inactive)
O=[PH](O)c1cccs1	GI50	> 100 µM (inactive)
CCSc1c(C)c2c(n(Cc3ccc(OC)cc3)c1=O)Cc1ccccc1C2	GI50	11.8 µM (inactive)

I have 2 molecules here; please give me GI50 for each one.
1. N#CC1(C2SCC[S+]2[O-])C2=C(C(=O)c3ccccc3C2=O)N2CCCC21 (stereo unspecified)
2. CC(=O)Oc1c(-c2ccccc2)oc2ccccc12

1: 3.01 µM (inactive); 2: 2.28 µM (inactive)

I have 8 molecules here; please give me GI50 for each one.
1. CCOC(=O)C=C1CCC2(CC1)OCCO2
2. Cc1ccccc1NC(=O)C1C(=O)N(c2ccccc2C)C(=O)/C1=N\NC(N)=S (stereo unspecified)
3. C/C(=N/Nc1ccc([N+](=O)[O-])cc1[N+](=O)[O-])C(CC(C(=O)NCc1ccccc1)/C(C)=N\Nc1ccc([N+](=O)[O-])cc1[N+](=O)[O-])C(=O)NCc1ccccc1 (stereo unspecified)
4. Cc1ncc(CO)c(/C=N/CCCCCC/N=C/c2c(CO)cnc(C)c2[O-])c1[O-].[Mg+2]
5. CCC1(C)C=Cc2c(cc(O)c3c(=O)c4ccccc4n(C)c23)O1 (stereo unspecified)
6. COc1ccc2nc3c(C(=O)NCCN(C)C)cccc3nc2c1
7. Cc1ccc(OCC2OC(n3cnc4nc(Cl)nc(Cl)c43)CC2Oc2ccc(C)cc2)cc1 (stereo unspecified)
8. C/C(=N\O)C(CN(C)C)C(c1ccccc1)c1c(O)c2ccccc2oc1=O (stereo unspecified)

> 100 µM (inactive)
> 100 µM (inactive)
4.42 µM (inactive)
> 100 µM (inactive)
> 10 µM (inactive)
7.36 µM (inactive)
7.01 µM (inactive)
> 100 µM (inactive)

I have 4 molecules here; please give me GI50 for each one.
1. COc1cc(C2(O)c3ccccc3C3=NCCN32)cc(OC)c1OC (stereo unspecified)
2. Nc1nc2c(ncn2C2CCC(CO)O2)c(=O)n1C(=O)c1ccccc1 (stereo unspecified)
3. COC(=O)NC(C(F)(F)F)(C(F)(F)F)P1(=O)OCCCO1
4. COc1ccc(-n2cnc3c(NC(CCSC)C(=O)O)ncnc32)cc1 (stereo unspecified)

> 100 µM (inactive)
> 100 µM (inactive)
25.7 µM (inactive)
> 100 µM (inactive)

I have 2 molecules here; please give me GI50 for each one.
1. Cc1cc(C)nc(NS(=O)(=O)c2ccc(NC(=O)COC(=O)c3cccc4c(=O)c5ccccc5[nH]c34)cc2)n1
2. Oc1ccc(/C=N/c2nccs2)c(O)c1

1. 37.7 µM (inactive)
2. > 100 µM (inactive)

I have 2 molecules here; please give me GI50 for each one.
1. COc1cccc(/C=C2\C(=O)N(C(=O)c3ccc(NC(C)=O)cc3)N=C2C)c1
2. C#CCOCn1cnc2c(Sc3c([N+](=O)[O-])ncn3C)ncnc21

1. > 100 µM (inactive)
2. > 100 µM (inactive)
